# MEASUREMENT_TARGET: T1, biotinylated hBLyS-ECD (human, UniProt Q9Y275 134-285, biotinylated with Biotin-X-X-NHS (molar ratio 7:1); sites not stated)
# T1 construct: also called biotinylated immunogen; biotinylated hBLvS-ECD
# T1 sequence (Q9Y275 134-285): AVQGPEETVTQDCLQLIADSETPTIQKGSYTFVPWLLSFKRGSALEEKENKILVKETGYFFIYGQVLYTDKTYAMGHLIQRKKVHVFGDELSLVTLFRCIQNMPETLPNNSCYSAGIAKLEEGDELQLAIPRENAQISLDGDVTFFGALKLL
# ASSAY: ELISA on captured biotinylated hBLyS-ECD; antibody 0.534 nM
ASSAY_ENDPOINT: OD450 nm (OD450 nm)
// note: answer is a bare numeric in OD450 nm

query: Entry under review: c67A2E1D10 (antibody, V domains shown) VH: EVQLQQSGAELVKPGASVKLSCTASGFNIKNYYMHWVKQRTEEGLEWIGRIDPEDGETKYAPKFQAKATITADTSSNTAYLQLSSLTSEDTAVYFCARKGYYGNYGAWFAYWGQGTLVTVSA VL: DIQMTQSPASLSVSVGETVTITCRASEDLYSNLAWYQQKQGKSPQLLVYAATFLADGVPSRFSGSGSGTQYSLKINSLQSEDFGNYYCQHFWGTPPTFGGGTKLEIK . Reported OD450 nm?
result: 2.73
